TEST_TARGET: CDK7/cyclinH/MAT1 trimeric complex (Homo sapiens)
Sequence (P50613 whole entry): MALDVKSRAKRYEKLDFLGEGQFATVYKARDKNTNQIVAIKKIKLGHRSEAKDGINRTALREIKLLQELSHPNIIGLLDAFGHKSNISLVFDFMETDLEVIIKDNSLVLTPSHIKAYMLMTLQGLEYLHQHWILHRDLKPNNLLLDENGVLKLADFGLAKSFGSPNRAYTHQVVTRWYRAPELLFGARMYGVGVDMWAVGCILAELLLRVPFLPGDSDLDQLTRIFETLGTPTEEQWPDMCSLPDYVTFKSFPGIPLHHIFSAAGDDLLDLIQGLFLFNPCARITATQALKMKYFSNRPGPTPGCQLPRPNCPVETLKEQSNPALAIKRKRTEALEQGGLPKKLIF
Sequence (P51946 whole entry partner): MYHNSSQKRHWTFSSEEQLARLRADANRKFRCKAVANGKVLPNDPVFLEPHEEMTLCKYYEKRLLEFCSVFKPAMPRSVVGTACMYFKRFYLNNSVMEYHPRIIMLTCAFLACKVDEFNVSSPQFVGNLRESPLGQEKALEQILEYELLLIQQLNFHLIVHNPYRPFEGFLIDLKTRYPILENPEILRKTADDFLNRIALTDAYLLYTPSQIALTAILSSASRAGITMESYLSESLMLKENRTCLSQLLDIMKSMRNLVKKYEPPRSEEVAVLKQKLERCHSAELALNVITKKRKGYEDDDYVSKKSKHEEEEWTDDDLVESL
Sequence (P51948 whole entry partner): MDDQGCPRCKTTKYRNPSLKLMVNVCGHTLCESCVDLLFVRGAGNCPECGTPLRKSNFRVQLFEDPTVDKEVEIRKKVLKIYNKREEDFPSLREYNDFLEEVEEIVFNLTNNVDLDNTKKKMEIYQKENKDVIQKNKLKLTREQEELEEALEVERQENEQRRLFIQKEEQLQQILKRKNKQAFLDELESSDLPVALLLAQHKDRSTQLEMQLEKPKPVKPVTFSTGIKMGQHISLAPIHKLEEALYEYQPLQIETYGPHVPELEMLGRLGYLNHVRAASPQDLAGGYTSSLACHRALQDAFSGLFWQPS
TEST_SUMMARY: In vitro CDK7 assay, potency of irreversible covalent inhibitors (kinact/KI), coupled PK/LDH ADP readout at 340 nm
STUDY_CONDITIONS: read-out: CDK7 (20 nM enz.) (kinact/KI, M^−1*s^−1), 20 nM enzyme
REPORTED_PROPERTY: kinact/KI (M⁻¹ s⁻¹)
# number only, unit M⁻¹ s⁻¹ dropped from output

// known answers, use as guide
MOLECULE_SMILES: C=CC(=O)N1CC(N2CCC(c3cc4c(cc3C#N)OCc3c(N5CCOCC5)ccnc3N4)CC2)C1
kinact/KI / M⁻¹ s⁻¹: 401

MOLECULE_SMILES: C=CC(=O)N1CCC2(CC1)CC(c1cc(F)c3c(c1)Nc1nccc(N4CCOCC4)c1CO3)C2
kinact/KI / M⁻¹ s⁻¹: 18.9

Now consider a different compound.
Query: Which kinact/KI is listed for `C=CC(=O)N1CC(N2CCC(c3cc(F)c4c(c3)Nc3nccc(N5CCS(=O)(=O)CC5)c3CO4)CC2)C1` ?
Response: 523
